Target: P110β (Homo sapiens, UniProt P42338)
Sequence (P42338 whole entry, canonical isoform): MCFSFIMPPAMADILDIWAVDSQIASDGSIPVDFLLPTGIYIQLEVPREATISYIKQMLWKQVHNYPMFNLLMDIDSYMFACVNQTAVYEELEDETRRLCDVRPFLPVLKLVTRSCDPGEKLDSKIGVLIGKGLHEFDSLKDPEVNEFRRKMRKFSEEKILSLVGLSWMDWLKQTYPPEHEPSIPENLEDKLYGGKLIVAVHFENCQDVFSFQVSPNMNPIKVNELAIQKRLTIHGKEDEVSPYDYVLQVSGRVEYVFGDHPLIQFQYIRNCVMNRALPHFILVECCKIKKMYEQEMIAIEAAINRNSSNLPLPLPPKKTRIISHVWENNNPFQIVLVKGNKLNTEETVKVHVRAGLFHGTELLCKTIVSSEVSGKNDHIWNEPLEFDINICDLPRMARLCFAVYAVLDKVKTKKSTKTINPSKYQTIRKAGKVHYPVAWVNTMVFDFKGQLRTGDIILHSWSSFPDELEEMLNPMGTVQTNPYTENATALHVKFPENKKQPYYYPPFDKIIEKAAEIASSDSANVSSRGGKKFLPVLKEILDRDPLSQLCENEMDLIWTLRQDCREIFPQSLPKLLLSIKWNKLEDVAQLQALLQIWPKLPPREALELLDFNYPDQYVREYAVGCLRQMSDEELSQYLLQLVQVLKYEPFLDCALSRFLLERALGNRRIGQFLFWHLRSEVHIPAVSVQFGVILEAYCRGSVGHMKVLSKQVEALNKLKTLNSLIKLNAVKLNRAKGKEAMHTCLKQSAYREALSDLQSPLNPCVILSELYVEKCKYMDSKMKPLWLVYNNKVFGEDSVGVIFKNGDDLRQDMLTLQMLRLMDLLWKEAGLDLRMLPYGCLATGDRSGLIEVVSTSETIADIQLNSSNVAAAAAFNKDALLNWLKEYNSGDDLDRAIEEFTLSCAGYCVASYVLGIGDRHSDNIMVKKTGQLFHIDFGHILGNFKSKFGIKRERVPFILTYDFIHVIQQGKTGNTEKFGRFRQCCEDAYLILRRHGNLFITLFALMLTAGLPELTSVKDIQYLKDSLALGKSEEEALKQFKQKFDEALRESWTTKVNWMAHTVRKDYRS
Sequence (P27986 whole entry partner, canonical isoform): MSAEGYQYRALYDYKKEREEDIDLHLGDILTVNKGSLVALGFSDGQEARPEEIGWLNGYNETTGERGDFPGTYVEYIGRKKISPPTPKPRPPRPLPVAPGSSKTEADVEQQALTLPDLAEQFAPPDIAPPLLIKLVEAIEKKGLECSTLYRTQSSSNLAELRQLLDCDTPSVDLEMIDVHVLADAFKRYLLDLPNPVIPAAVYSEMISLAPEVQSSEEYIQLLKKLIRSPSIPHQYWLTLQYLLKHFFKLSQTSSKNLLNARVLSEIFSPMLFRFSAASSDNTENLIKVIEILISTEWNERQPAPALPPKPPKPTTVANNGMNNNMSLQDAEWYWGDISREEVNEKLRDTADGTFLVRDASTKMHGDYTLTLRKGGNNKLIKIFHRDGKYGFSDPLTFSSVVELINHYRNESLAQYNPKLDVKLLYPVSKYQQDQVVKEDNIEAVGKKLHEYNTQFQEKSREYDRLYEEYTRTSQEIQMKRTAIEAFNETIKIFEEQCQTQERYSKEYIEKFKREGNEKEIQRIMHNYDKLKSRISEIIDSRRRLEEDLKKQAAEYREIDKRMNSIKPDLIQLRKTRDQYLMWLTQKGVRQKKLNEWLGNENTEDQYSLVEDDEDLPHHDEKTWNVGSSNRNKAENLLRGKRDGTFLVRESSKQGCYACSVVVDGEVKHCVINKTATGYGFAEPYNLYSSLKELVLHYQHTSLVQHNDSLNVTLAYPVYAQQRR
Experiment: Fluorescent (HTRF) determination of PI3K enzyme activity, β isoform
Format: biochemical
valueKind: inhibition at 1 µM

CC(c1oc2ccccc2c(=O)c1-c1cccc(F)c1)n1nc(-c2ccco2)c2c(N)ncnc21 (stereo not shown)	< 25%
CCc1n[nH]c2cc(-c3nn(C(C)c4oc5ccccc5c(=O)c4-c4cccc(F)c4)c4ncnc(N)c34)ccc12 (stereo not shown)	< 25%
CC(c1oc2ccccc2c(=O)c1-c1cccc(F)c1)n1nc(-c2ccc(OCc3ccccc3)c(Cl)c2)c2c(N)ncnc21 (stereo not shown)	25 to 50%
CC(c1oc2ccccc2c(=O)c1-c1cccc(F)c1)n1nc(-c2csc(CO)c2)c2c(N)ncnc21 (stereo not shown)	< 25%
CC(c1oc2ccccc2c(=O)c1-c1cccc(F)c1)n1nc(-c2ccc(N3CCOCC3)nc2)c2c(N)ncnc21 (stereo not shown)	25 to 50%

Prompt: I'm curious: which inhibition at 1 µM was measured for CC(c1oc2ccccc2c(=O)c1-c1cccc(F)c1)n1nc(-c2ccc(O)c(F)c2)c2c(N)ncnc21 (stereo not shown) tested on P110β (Homo sapiens, UniProt P42338)?
Response: 25 to 50%

Prompt: Item CC(c1oc2ccccc2c(=O)c1-c1cccc(F)c1)n1nc(-c2cccc(N(C)C)c2)c2c(N)ncnc21 (stereo not shown) with P110β (Homo sapiens, UniProt P42338) - inhibition at 1 µM?
Response: 25 to 50%
